Recorded values, source paper PMC4701221.

The following compounds are shown together with reported IC50 at 72 h values.
measurement-notes: MTT assay, CCD39Lu
Assay type: cell-based
stated-conditions: human, CCD39Lu cells (non-tumorigenic lung fibroblasts), read-out: Cytotoxic activity IC50, CCD39Lu
Text: The cell lines used in the cytotoxicity study, besides MCF-12A, were purchased from European Collection of Cell Culture (ECACC, Salisbury, UK): HEK293 (human embryonic kidney, ATTC no. CRL-1573), A549 (Human lung carcinoma, ECACC no. 86012804), CCD39Lu (Human lung fibroblasts, ECACC no. 90110512), MCF-7 (Human breast adenocarcinoma, ECACC no. 86012803) and MDA-MB-231 (Human breast adenocarcinoma ECACC no. 92020424). […]
// return numeric value only (unit: µM, not printed)

Use the examples below as a reference point.
{"record-smiles": "Fc1cc(NC(=S)c2ccccc2NC(=S)c2cc(F)c(F)c(F)c2)cc(F)c1F", "IC50 at 72 h, µM": 0.76}
{"record-smiles": "COc1ccc(NC(=O)c2ccccc2[N+](=O)[O-])cc1", "IC50 at 72 h, µM": 96.3}
{"record-smiles": "COc1ccc(NC(=O)c2ccc(OC)cc2[N+](=O)[O-])cc1", "IC50 at 72 h, µM": 48.8}
{"record-smiles": "COc1ccc(NC(=O)c2ccccc2NC(=O)COC(C)=O)cc1", "IC50 at 72 h, µM": 47.9}

Entry under review: O=C(Nc1cc(F)c(F)c(F)c1F)c1ccccc1NC(=O)c1cc(F)c(F)c(F)c1F . Reported IC50 at 72 h?
61.4

----------
measurement-notes: MTT assay, CCD39Lu
Format: cell-based
stated-conditions: human, CCD39Lu cells (non-tumorigenic lung fibroblasts), read-out: Cytotoxic activity IC50, CCD39Lu
Listed next: entries and their corresponding IC50 at 72 h.

Solved cases below.
{"record-smiles": "COc1ccc(NC(=O)c2cc(Cl)ccc2[N+](=O)[O-])cc1", "endpoint-result": "> 100 µM"}
{"record-smiles": "COc1ccc(NC(=S)c2cccc(NC(=S)c3ccc(OC)cc3)c2)cc1", "endpoint-result": "> 100 µM"}

Now for a further compound.
What IC50 at 72 h value was documented for this compound, COc1ccc(NC(=O)c2cc(C)c(C)cc2[N+](=O)[O-])cc1 ?
> 100 µM
